I'd appreciate it if you could supply Ki values for the items below.
Target: human PDE2A1 (Homo sapiens (Human), UniProt O00408)
Sequence (O00408 other isoform, or with tags, fused parts or gaps): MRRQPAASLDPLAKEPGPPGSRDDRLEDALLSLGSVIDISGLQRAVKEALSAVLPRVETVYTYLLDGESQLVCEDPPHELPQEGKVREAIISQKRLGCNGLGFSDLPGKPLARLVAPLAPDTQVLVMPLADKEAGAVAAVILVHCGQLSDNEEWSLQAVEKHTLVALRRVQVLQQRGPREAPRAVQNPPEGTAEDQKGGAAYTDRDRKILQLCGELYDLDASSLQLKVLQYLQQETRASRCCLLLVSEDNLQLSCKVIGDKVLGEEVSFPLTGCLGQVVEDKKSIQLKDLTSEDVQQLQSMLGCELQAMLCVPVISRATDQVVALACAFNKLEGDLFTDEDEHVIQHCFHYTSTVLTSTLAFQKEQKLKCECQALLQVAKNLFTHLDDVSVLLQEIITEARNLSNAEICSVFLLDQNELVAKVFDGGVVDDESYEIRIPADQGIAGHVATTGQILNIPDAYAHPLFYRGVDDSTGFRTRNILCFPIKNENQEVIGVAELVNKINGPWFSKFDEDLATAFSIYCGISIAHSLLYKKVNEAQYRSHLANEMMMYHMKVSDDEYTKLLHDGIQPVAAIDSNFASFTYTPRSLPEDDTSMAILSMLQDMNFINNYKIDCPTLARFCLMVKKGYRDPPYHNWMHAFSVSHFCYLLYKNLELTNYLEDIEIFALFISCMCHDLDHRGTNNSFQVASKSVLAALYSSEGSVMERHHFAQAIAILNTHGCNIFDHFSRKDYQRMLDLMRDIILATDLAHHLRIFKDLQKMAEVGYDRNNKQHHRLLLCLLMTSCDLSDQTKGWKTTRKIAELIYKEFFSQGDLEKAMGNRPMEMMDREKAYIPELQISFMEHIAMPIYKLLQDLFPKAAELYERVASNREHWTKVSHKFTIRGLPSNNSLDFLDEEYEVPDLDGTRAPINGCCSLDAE
Test: PDE2 IMAP FP inhibition assay, human PDE2A1 (selectivity panel format)
Format: biochemical
Conditions: Lab A; read-out: Human PDE2 Ki (nM) - Lab A
Answers are plain numbers, in nM.

Would you mind giving Ki for every compound in the list below?
1. C[C@@H](NC(=O)c1cc(=O)[nH]c(NC2CCCC2)n1)c1ccc(C(F)(F)F)cc1
2. CCOc1nc(C(=O)N[C@H](C)c2ccc(C(F)(F)F)cc2)cc(=O)[nH]1
3. C[C@@H](NC(=O)c1cc(=O)[nH]c(N2CCCCC2)n1)c1ccc(C(F)(F)F)cc1
4. C[C@@H](NC(=O)c1cc(=O)[nH]c(NC2CCC2)n1)c1ccc(C(F)(F)F)cc1
5. CCCOc1nc(C(=O)N[C@H](C)c2ccc(C(F)(F)F)cc2)cc(=O)[nH]1
6. CN(C)c1nc(C(=O)NC2(c3ccc(SC(F)(F)F)cc3)CC2)cc(=O)[nH]1

Result:
1: 56; 2: 72; 3: 24; 4: 38; 5: 52; 6: 1.8

Would you mind giving Ki for every compound in the list below?
1. C[C@@H](NC(=O)c1cc(=O)[nH]c(N2Cc3ccncc3C2)n1)c1ccc(C(F)(F)F)cc1
2. CC[C@@H](NC(=O)c1cc(=O)[nH]c(N2CCCC2)n1)c1ccc(SC(F)(F)F)c(F)c1

Result:
1: 1; 2: 0.22

* * *

Target: Rhesus PDE2A3 (Macaca mulatta)
Sequence (B3VTJ2 1-941): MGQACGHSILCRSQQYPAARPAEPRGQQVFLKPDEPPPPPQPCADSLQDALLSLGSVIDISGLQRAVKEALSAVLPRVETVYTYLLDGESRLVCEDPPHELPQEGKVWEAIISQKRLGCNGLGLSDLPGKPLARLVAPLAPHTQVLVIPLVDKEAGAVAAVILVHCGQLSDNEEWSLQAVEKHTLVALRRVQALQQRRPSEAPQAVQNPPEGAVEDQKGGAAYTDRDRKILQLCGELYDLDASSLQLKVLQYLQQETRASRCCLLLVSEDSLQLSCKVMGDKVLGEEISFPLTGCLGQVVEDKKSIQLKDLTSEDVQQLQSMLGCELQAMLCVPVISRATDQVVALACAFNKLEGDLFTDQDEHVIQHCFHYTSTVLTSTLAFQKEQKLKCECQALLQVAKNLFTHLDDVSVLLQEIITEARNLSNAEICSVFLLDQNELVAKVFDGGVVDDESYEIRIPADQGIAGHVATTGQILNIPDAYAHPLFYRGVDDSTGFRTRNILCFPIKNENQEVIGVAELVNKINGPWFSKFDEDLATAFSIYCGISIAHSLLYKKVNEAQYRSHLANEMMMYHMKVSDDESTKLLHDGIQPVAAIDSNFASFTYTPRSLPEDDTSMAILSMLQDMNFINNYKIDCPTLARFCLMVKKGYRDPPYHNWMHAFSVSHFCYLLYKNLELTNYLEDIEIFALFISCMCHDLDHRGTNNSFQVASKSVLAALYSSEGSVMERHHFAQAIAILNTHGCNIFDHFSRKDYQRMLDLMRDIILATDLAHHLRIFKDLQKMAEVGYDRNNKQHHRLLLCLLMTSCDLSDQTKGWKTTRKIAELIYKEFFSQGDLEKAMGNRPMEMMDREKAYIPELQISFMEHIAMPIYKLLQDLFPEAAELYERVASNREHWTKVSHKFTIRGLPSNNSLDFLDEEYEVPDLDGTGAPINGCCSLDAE
Assay: PDE2 fluorescence polarization (IMAP FP) inhibition assay, rhesus PDE2A3
Assay type: biochemical, rhesus macaque
Conditions: Lab B; read-out: Rhesus PDE2 Ki (nM) - Lab B
Experimental: A Labcyte Echo 555 (Labcyte, Sunnyvale, Calif.) is used to dispense 200 nL from each well of the titration plate to the 384 well assay plate. […] The plate was incubated at room temperature for at least one hour prior to determining the fluorescence polarization (FP). The parallel and perpendicular fluorescence of each well of the plate was measured using a Tecan Genios Pro plate reader (Tecan, Switzerland) or Perkin Elmer EnVision™ plate reader (Waltham, Mass.). […]
Binarize Ki at 1 nM; below is t, at or above is f.

Task: Ki strictly < 1 nM for this molecule? CC(C)(C)[C@@H](NC(=O)c1cc(=O)[nH]c(N2CC[C@H](F)C2)n1)c1ccc(C(F)(F)F)cc1
Result: t

Task: Ki strictly < 1 nM for this molecule? CN(C)c1nc(C(=O)N[C@@H](c2ccc(C3CC3)cc2)C(C)(C)C)cc(=O)[nH]1
Result: t

Task: Ki strictly < 1 nM for this molecule? CN(C)c1nc(C(=O)N[C@@H](c2ccc(OC(F)(F)F)c(F)c2)C2CC2)cc(=O)[nH]1
Result: t

Task: Ki strictly < 1 nM for this molecule? CN(C)c1nc(C(=O)N[C@@H](c2ccc(OC(F)F)cc2)C(C)(C)C)cc(=O)[nH]1
Result: t

Task: Ki strictly < 1 nM for this molecule? CN(C)c1nc(C(=O)N[C@@H](c2ccc(C(F)F)c(F)c2)C(C)(C)C)cc(=O)[nH]1
Result: t

Task: Ki strictly < 1 nM for this molecule? CC(C)[C@@H](NC(=O)c1cc(=O)[nH]c(N(C)C)n1)c1ccc(OC(F)F)c(F)c1
Result: f

Others:
Task: Ki strictly < 1 nM for this molecule? CN(C)c1nc(C(=O)N[C@@H](c2ccc(S(F)(F)(F)(F)F)cc2)C2CC2)cc(=O)[nH]1
Result: f

Task: Ki strictly < 1 nM for this molecule? C[C@@H](NC(=O)c1cc(=O)[nH]c(N(C)C)n1)c1ccc(OC(F)(F)F)c(Cl)c1
Result: f

Task: Ki strictly < 1 nM for this molecule? O=C(N[C@@H](c1ccc(C(F)(F)F)cc1)C1CC1)c1cc(=O)[nH]c(N2CC[C@H](F)C2)n1
Result: f
